# System: RPMI-8226 leukemia
# protocol: NCI tumour cell line growth inhibition, 48 h
measurement-label: GI50

So for `COc1ccccc1NC(=O)c1sc2nc3c(cc2c1N)C(=O)CCC3` , the logged GI50 turned out to be > 100 µM

The measured GI50 associated with `O=C1C(Cl)=C(Nc2cccc(Cl)c2)C(=O)N1Cc1ccccc1` reads 1.37 µM

---

Examples of compounds with documented TGI follow.
# System: OVCAR-8 ovarian
# protocol: NCI tumour cell line growth inhibition, 48 h

The recorded TGI for `CCOC(=O)c1c2c3c(cccc3[nH]c1=O)Sc1ncccc1-2` is > 100 µM

---

# Tested on: A549 NSCLC
# protocol: NCI tumour cell line growth inhibition, 48 h
Reported TGI values follow for various compounds

* O=c1cc(NCCCCCO)[nH]c(=O)[nH]1 | > 100 µM

Short answer for O=C(O)c1ccccc1NC(c1ccccc1)c1ccc2cccnc2c1O (configuration not stated) : TGI was > 100 µM

get_value(item= CC(C)(C)OC1=C(OC(C)(C)C)C(O)(c2ccccc2)C1=O (configuration not stated) , readout=TGI) returns > 100 µM

Short answer for `ON/N=C/c1cc2c(cc1Br)OCO2` : TGI was > 386 µM

---

// reported TGI for each item listed
# System: NCI/ADR-RES ovarian
# protocol: NCI tumour cell line growth inhibition, 48 h
*1 amine or outer side, *2 acyl side, *3 side chain or, on linkers, in order; H or OH if unused. Where a SMILES comes first, the peptide text is derived from it. [ ]: non-standard residue; d: D form. The star is where a group is joined. X31 = CC(=O)N(C)SCC(N[*:1])C(=O)[*:2]; X47 = CC(=O)N(C)SCC(N*)/C(O)=N\O; Cbz = O=C(OCc1ccccc1)*; Boc = CC(C)(C)OC(=O)*; Bz = O=C(c1ccccc1)*; Bn = c1ccc(C*)cc1; For = O=C*

- CCCCCCCC1C(C)c2c([nH]c3ccccc23)C2C(=O)N(c3ccc(OC)cc3)C(=O)C21 (configuration not stated): 3.02 µM
- CC(=O)N(C)SCC(NC(=O)C(Cc1ccccc1)NC(=O)OCc1ccccc1)C(=O)NC(Cc1ccccc1)C(=O)NC(Cc1cn(C=O)c2ccccc12)C(=O)NC(CCCCNC(=O)OCc1ccccc1)C(=O)NC(C(=O)NC(CSN(C)C(C)=O)/C(O)=N\O)C(C)OCc1ccccc1 (configuration not stated) (Cbz-F[X31]FW(For)K(Cbz)T(Bn)-X47; configuration not given here): > 100 µM
- COc1ccc(C2=CC(c3ccccc3)n3nnnc3N2)cc1 (configuration not stated): > 100 µM
- O=C(NC1CCN(Cc2ccccc2)CC1)c1cc(-c2ccncc2)nc2ccc(Cl)cc12: > 100 µM
- COc1cccc(C2c3cc4c(cc3OC(C)(N3CCCC3)C2C)OCO4)c1OC (configuration not stated): 76.8 µM
- CC(=O)N[C@@H](Cc1ccc(OP(=O)(O)O)cc1)C(=O)N[C@H]1CCC(=O)N2CCC[C@@H](C(=O)NCc3ccc(Cl)cc3)N2C1=O: > 25 µM
- FC(F)(F)Oc1cccc(-c2cnc3ccc(-c4ccncc4)nn23)c1: 95.5 µM
- Brc1ccc2[nH]cc(-c3csc(-c4ccccn4)n3)c2c1: > 100 µM
- CN(C)c1ccc(/C=c2/c3ccccc3n3c2c2ccccc2[n+]3C)cc1: 32.8 µM
- CC(NC(=O)C(Cc1ccc(OC(=O)c2ccccc2)cc1)NC(=O)OC(C)(C)C)C(=O)NC(Cc1ccccc1)C(=O)NCC(N)=O (configuration not stated) (Boc-Y(Bz)AFG-NH2; configuration not given here): > 100 µM

Kindly note: NCI/ADR-RES ovarian, `CCOC(=O)c1c2c3c(cccc3[nH]c1=O)Sc1ncccc1-2` , TGI value reported: > 100 µM

GET /values?item= `COc1cc(C=O)ccc1Oc1nnnn1-c1ccccc1` &system= NCI/ADR-RES ovarian returns TGI: > 100 µM

For `C[C@@H]1COCCN1c1cc(C2([S@](C)(=N)=O)CC2)nc(-c2ccnc3[nH]ccc23)n1` on NCI/ADR-RES ovarian, measured TGI was > 100 µM

Form field TGI for item `F` on NCI/ADR-RES ovarian: > 6870 µM

Field TGI (system: NCI/ADR-RES ovarian) for entry `CCNC(=O)[C@@H]1CCCN2C(=O)CC[C@H](NC(=O)[C@H](Cc3ccc(OP(=O)(O)O)cc3)NC(C)=O)C(=O)N12` = > 25 µM

Short answer on NCI/ADR-RES ovarian for `Cc1c(N2CCCC2)cc2c(c1NC(=O)c1ccccc1Cl)C(C)(C)CC2(C)C` , TGI: 29.5 µM

The compound `CC1(C)N=C(N)N=C(N)N1c1cccc(CCCCc2cccc(S(=O)(=O)F)c2)c1` , tested on NCI/ADR-RES ovarian, showed TGI of > 100 µM

Where do the numbers come from? From PubChem BioAssay (NCI).
